- Test system: head and neck squamous cell carcinoma cell line (FaDu)
- procedure_summary: Cell viability assay (CellTiter-Glo), FaDu
- Assay type: cell-based
- condition_set: Homo sapiens, 72 h; FaDu cells, 3 days incubation, CellTiter-Glo luminescence, 50% of untreated control
metric: IC50 (nM)
Numbers only; they are read as nM.

Entry CN[C@H](C(=O)N[C@H](C(=O)N(C)[C@H](/C=C(\C)C(=O)O)C(C)C)C(C)(C)C)C(C)(C)c1ccc(OC)c(N)c1 under head and neck squamous cell carcinoma cell line (FaDu) had IC50 of 6.17

meta.source: patent US20260263616A1
